- assayed system: T1, PACAP-R3 (human, UniProt P41587 24-438)
- T1 sequence (looked up): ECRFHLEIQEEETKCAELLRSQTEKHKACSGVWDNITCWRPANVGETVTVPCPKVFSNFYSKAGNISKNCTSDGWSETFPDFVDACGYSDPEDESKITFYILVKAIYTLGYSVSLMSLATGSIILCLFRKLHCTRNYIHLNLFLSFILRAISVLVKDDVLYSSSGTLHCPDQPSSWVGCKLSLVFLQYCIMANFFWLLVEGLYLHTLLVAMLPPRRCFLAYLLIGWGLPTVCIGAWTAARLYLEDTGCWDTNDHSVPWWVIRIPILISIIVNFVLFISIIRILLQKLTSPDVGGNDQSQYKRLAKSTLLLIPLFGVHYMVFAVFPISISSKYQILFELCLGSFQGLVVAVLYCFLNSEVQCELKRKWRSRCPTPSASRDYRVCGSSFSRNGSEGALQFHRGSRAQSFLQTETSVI
- test protocol: cell-based or functional assay
parameter: R3 Selectivity

Check out these entries, answers already filled in.
> print(dat)
                                    binder   test.value
1  HSDAVFTDNYTRLRKQLAAKKYLNDIKKKRY [R3P36]  > 200 ratio
2  HSDAVFTDNYTRLRKQMAAKKYLNSIKNKE [R3P155]    100 ratio
3   HSDAVFTDNYTRLRKQLAAKKYLNDIKKNQ [R3P35]   > 40 ratio
4    HSDAVFTDNYTRLRKQMAVKKYLNSIKKK [R3P58]    170 ratio
5     HSDAVFTDNYTRLRKQMAAKKYLNSILK [R3P50]      6 ratio

Param item = HSDAVFTDNYTRLRKQMAPKKYLNSIKNKR [R3P107] ; retrieve measured R3 Selectivity.
5 ratio

// same read-out, input: HSDAVFTDNYTRLRKQLAVKKYLNSIKKGGT [R3P25]
20 ratio

Another: HSDAVFTDNYTRLRKQMAAKKYLNSIKNIR [R3P140]
50 ratio

Consider next the binder HSDAVFTENYTKLRKQLAAKKYLNDLKKGGT [R3P3] in the same way.
130 ratio

Another: HSDAVFTDNYTRLRKQVAAKKYLQSILKK [R3P85]
30 ratio
